Listed next: entries and their corresponding SH2 binding enrichment.
Biological target: SHP2-C SH2;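 note: peptide library displayed on the E. coli surface as eCPX fusions, selected cells deep-sequenced, score is each peptide's frequency after selection divided by its frequency in the input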
Test: SH2 binding enrichment of the phosphorylated peptide, bacterial display (enrichment ratio); higher = better substrate or ligand; peptides without Tyr show the background
property-label: SH2 binding enrichment

ERNARYRTPKI [PTK2B_Y699] :: 0.71
LAIERYVVVCK [RHO_Y136] :: 0.679
LTAEVYFPSIK [C5orf64_Y60] :: 0.708
CTTIHYNFMCH [TP53_Y234_N239H_YF] :: 1.92
NGVSYYINLCQ [IGF2R_Y2025] :: 0.488
SVVVPDEPPEV [TP53_Y220_Y220D] :: 0.794
TFRPPYFHRDC [HGD_Y333_N337D_YF] :: 0.741
EPTPSYEVGQR [TSC2_Y1788_G1787S] :: 0.738
FLAVGYHKLHI [IDS_Y225_P228L] :: 1.42
KLQKFYRKNPD [EHHADH_Y683_Q685K_YF] :: 0.702
RDGDRYFKGIV [DCX_Y64_N60D] :: 0.606
ESFCLYPPVPQ [CYP4B1_Y377_R375C] :: 0.842
RGEEPYTKKAL [TTC21B_Y160_K157E] :: 0.634
SVVMPYEPPEV [TP53_Y220_V218M] :: 0.738
CTTIHYNYMCN [TP53_Y234] :: 2.41
LQTYHYHGHSM [PDHA1_Y289_R288H] :: 2
KFFRVYQGQQP [MUTYH_Y494_V490F] :: 0.596
AAVPAYDKIQV [STXBP2_Y401_R405Q] :: 0.546
GFPVHYTDMSN [DNMT3B_Y815_V818M] :: 6.03
LPKVSCVKAID [GLRA1_Y307_Y307C] :: 0.35
PSDLLYIPDIQ [ITGA2B_Y845_L847P] :: 0.288
FRQLQYCPSVE [CTNND2_Y508_YF] :: 0.658
IYHLSYHHNCE [PDE6B_Y227_L228H] :: 1.19
CYVYYYSYLLK [PTEN_Y178_R173C] :: 0.543
VKMLEYRGKDV [CASP5_Y74_L75R] :: 0.628
SPYAVYLFFTF [RPGRIP1_Y826_R827L] :: 0.71
GKTQQYDCKWY [BCR_Y751] :: 0.601
TYGVAYRAKDK [CDK11B_Y453_V452A] :: 0.882
TISPFYRQSLF [CRYAA_Y48_YF] :: 0.706
ETKKQYNSFTY [TMED3_Y85_D86N] :: 0.704
